System: UACC-257 melanoma
EXPERIMENTAL_PROTOCOL: NCI-60 one-dose screen, 48 h
STATED_CONDITIONS: 10 µM unless noted
Compounds without any hit were thinned out: in the full panel of roughly 83,000, 20% have a hit. Activity calls are given as the source filed them. The calls were made as follows: active = growth percent below 10; inactive = the rest.
I would appreciate it if you answered using one of these outcomes: active, inactive

COMPOUND	CLASS_LABEL
CC(C)COC(C[N+](=O)[O-])C(Cl)(Cl)Cl (centres undefined)	inactive

Q. Outcome logged for `COC(=O)[C@@H](C)C[C@H](Cc1ccccc1)NC(=O)c1nc([C@@H](C[C@H](C(C)C)N(C)C(=O)[C@@H](NC(=O)[C@H]2CCCCN2C)C(C)C)OC(C)=O)sc1C` in this assay:
A. inactive

Q. Outcome logged for C[S+]1C=Cc2ccccc2C1c1ccc(Cl)cc1 (centres undefined) in this assay:
A. inactive

Q. Outcome logged for `COC(=O)C12CC(NC(=O)c3csc([C@@H](C[C@H](C(C)C)N(C)C(=O)[C@@H](NC(=O)[C@H]4CCCCN4C)C4CC4)OC(C)=O)n3)(C1)C2` in this assay:
A. inactive

Q. Outcome logged for `CCOP(=O)(NC[C@H]1O[C@](O)(CO)[C@@H](O)[C@@H]1O)OCC` in this assay:
A. inactive

Q. Outcome logged for C1CCC([PH+](C2CCCCC2)C2CCCCC2[PH+](C2CCCCC2)C2CCCCC2)CC1.O=C(C1[CH-]CCCC1)C1CCCC[N-]1.[Au] (centres undefined) in this assay:
A. active

Q. Outcome logged for CC(C)(C)C(=O)OCOP(=O)(NCc1ccccc1)C1CCCN(O)C1=O (centres undefined) in this assay:
A. inactive

Q. Outcome logged for Cc1ccc2c(C(C[N+](=O)[O-])c3cccs3)c(-c3ccccc3)[nH]c2c1 (centres undefined) in this assay:
A. inactive

Q. Outcome logged for `C[CH2][Sn]([Cl])([Cl])[CH2]C.Oc1ccccc1C=NCCN=Cc1ccccc1O` in this assay:
A. inactive

----------
Test system: M14 melanoma
EXPERIMENTAL_PROTOCOL: NCI-60 one-dose screen, 48 h
STATED_CONDITIONS: 10 µM unless noted
The panel holds about 83,000 compounds, 20% with a hit somewhere; the sample as a whole holds those more often. Activity calls are given as the source filed them. The calls were made as follows: active = growth percent below 10; inactive = the rest.
I would appreciate it if you answered using one of these outcomes: y for active, n for inactive

Reference set, count: 4
COMPOUND	CLASS_LABEL
Fc1ccc2c(c1)c(-c1nc(-c3c[nH]c4ncccc34)cs1)cn2CCN1CCOCC1	n
CCCCCCCC[n+]1ccc2ccccc2c1	n
COC(=O)[C@H](Cc1ccccc1)NC(=O)c1csc([C@@H](C[C@H](C(C)C)N(C)C(=O)[C@@H](NC(=O)[C@H]2CCCN2C)C2CC2)OC(C)=O)n1	y
CCOC(=O)C(Cc1ccc(N(CCCl)CCCl)cc1)NC(=O)C(CC(C)C)NC(C)=O (stereo not drawn)	y

Q. Outcome logged for `O=C(N/N=C\c1ccc(N(CCCl)CCCl)cc1)c1cccc([N+](=O)[O-])c1` in this assay:
A. n

Q. Outcome logged for `O=C(c1cccc(O)c1O)c1cn(Cc2ccc(F)cc2)c2cccc(O)c12` in this assay:
A. y

Q. Outcome logged for `N/C(=N/N=C/c1ccncc1)N[N+](=O)[O-]` in this assay:
A. n

Q. Outcome logged for `COC(=O)[C@H](C[C@H](Cc1ccccc1)NC(=O)c1csc([C@@H](C[C@H](C(C)C)N(C)C(=O)[C@@H](NC(=O)[C@H]2CCCCN2C)C(C)C)OC(C)=O)n1)NC(=O)OCc1ccccc1` in this assay:
A. y
